pIC50: −log10 of the molar value.
Assignment: determine reported pIC50 for the given molecules.

// assay Bromodomain-containing protein 4 (Homo sapiens, UniProt O60885, Y390A), entry `CC(=O)Nc1ccc(C(=O)NC2CCOCC2)cc1OCc1ccccc1` , pIC50 value = < 4.30

// assay Bromodomain-containing protein 4 (Homo sapiens, UniProt O60885, Y390A), entry `CC(=O)Nc1ccc(C(=O)NCCCN)cc1OCc1ccc(C)cc1` , pIC50 value = 4.50

// assay Bromodomain-containing protein 4 (Homo sapiens, UniProt O60885, Y390A), entry `CC(=O)Nc1ccc(C(=O)NCCCN)cc1OCc1ccccn1` , pIC50 value = < 4.30

// assay Bromodomain-containing protein 4 (Homo sapiens, UniProt O60885, Y390A), entry `CC(=O)Nc1ccc(C(=O)NCC2CCNCC2)cc1OCc1ccccc1` , pIC50 value = < 4.30

// assay Bromodomain-containing protein 4 (Homo sapiens, UniProt O60885, Y390A), entry `CCNC(=O)c1cc(OCc2ccccc2)c(NC(C)=O)cc1F` , pIC50 value = < 4.30

// assay Bromodomain-containing protein 4 (Homo sapiens, UniProt O60885, Y390A), entry `CC(=O)Nc1ccc(C(=O)NCCC2CCOCC2)cc1OCc1ccccc1` , pIC50 value = < 4.30

// assay Bromodomain-containing protein 4 (Homo sapiens, UniProt O60885, Y390A), entry `CC(=O)Nc1ccc(C(=O)N[C@H]2CC[C@H](O)CC2)cc1OCc1ccccc1` , pIC50 value = < 4.30

// assay Bromodomain-containing protein 4 (Homo sapiens, UniProt O60885, Y390A), entry `CC(=O)Nc1ccc(C(=O)NCCCN)cc1OCC1CCOCC1` , pIC50 value = < 4.30

// assay Bromodomain-containing protein 4 (Homo sapiens, UniProt O60885, Y390A), entry `CC(=O)Nc1ccc(C(=O)NC2CCOCC2)cc1O[C@@H](C)c1ccccc1` , pIC50 value = 4.50

// assay Bromodomain-containing protein 4 (Homo sapiens, UniProt O60885, Y390A), entry `CCNC(=O)c1ccc(NC(C)=O)c(OCc2ccccc2)c1` , pIC50 value = < 4.30

// assay Bromodomain-containing protein 4 (Homo sapiens, UniProt O60885, Y390A), entry `CC(=O)Nc1ccc(C(=O)N[C@H]2CC[C@H](O)CC2)cc1O[C@@H](C)c1ccccc1` , pIC50 value = 4.40

// assay Bromodomain-containing protein 4 (Homo sapiens, UniProt O60885, Y390A), entry `CC(=O)Nc1ccc(C(=O)NCCO)cc1OCc1ccccc1` , pIC50 value = < 4.30

// assay Bromodomain-containing protein 4 (Homo sapiens, UniProt O60885, Y390A), entry `CC(=O)Nc1ccc(C(=O)NCCCO)cc1OCc1ccccc1` , pIC50 value = < 4.30

// assay Bromodomain-containing protein 4 (Homo sapiens, UniProt O60885, Y390A), entry `CC(=O)Nc1ccc(C(=O)NCCCN)cc1OCc1ccccc1` , pIC50 value = 4.50

// assay Bromodomain-containing protein 4 (Homo sapiens, UniProt O60885, Y390A), entry CC(=O)Nc1ccc(C(=O)NCCCN)cc1OC(C)c1ccccc1 (racemic) , pIC50 value = 4.70

// assay Bromodomain-containing protein 4 (Homo sapiens, UniProt O60885, Y390A), entry `CCNC(=O)c1ccc(NC(C)=O)c(OCc2ccccc2)c1F` , pIC50 value = < 4.30

// assay Bromodomain-containing protein 4 (Homo sapiens, UniProt O60885, Y390A), entry `CC(=O)Nc1ccc(C(=O)NCCCN)cc1OCc1ccc(Cl)cc1` , pIC50 value = 4.60

// assay Bromodomain-containing protein 4 (Homo sapiens, UniProt O60885, Y390A), entry `CC(=O)Nc1ccc(C(=O)NCCCN)cc1OCc1ccccc1Cl` , pIC50 value = 4.40

// assay Bromodomain-containing protein 4 (Homo sapiens, UniProt O60885, Y390A), entry `CC(=O)Nc1ccc(C(=O)NCCCN)cc1OCc1cccnc1` , pIC50 value = < 4.30

// assay Bromodomain-containing protein 4 (Homo sapiens, UniProt O60885, Y390A), entry `CC(=O)Nc1ccc(C(=O)NC2CCOCC2)cc1O[C@H](C)c1ccccc1` , pIC50 value = < 4.30
